Test system: crabgrass
Test: Herbicidal activity test against upland field weeds (foliar treatment test)
Type: in vivo
Details: Digitaria sanguinalis, 75 g ai/ha, scale 0-100
recorded_metric: pest or weed control at 75 g/ha

>>> result("CN(CCOCc1nnn(C)n1)c1nc(C(F)(F)F)ccc1C(=O)Nc1nnnn1C")
"60%"
>>> result("CN(CCc1nnn(C)n1)c1nc(C(F)(F)F)ccc1C(=O)Nc1nnnn1C")
"60%"
>>> result("CCN(Cc1nnn(C)n1)c1nc(C(F)(F)F)ccc1C(=O)Nc1nnnn1C")
"20%"
>>> result("CN(Cc1nnn(C)n1)c1nc(C(F)(F)F)ccc1C(=O)Nc1nnnn1C")
"95%"
>>> result("CN(Cc1ncn(C)n1)c1nc(C(F)(F)F)ccc1C(=O)Nc1nnnn1C")
"70%"
